I'd appreciate it if you could supply ASMS ratio (%) n = 2 values for the items below.
assay-system: Bcl-2 protein (Recombinant Human Bcl-2 Protein) (Homo sapiens, UniProt P10415)
Construct: purchased Novus NBP2-34889
Sequence (P10415 whole entry): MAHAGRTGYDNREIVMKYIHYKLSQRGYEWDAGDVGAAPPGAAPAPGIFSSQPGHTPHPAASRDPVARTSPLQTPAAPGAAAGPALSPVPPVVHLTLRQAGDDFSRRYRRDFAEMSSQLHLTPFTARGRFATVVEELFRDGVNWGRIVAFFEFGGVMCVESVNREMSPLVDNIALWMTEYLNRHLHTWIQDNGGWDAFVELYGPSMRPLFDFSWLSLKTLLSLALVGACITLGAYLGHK
measurement-description: Binding evaluation of mixture library compounds to Bcl-2 using AS-MS (affinity selection mass spectrometry)
applied-conditions: AS-MS, mixture library, Bcl-2; replicate n = 2; ASMS Ratio(%)=(A−C)/B×100
Quick note: number first, unit second.

Measured on Bcl-2 protein (Recombinant Human Bcl-2 Protein) (Homo sapiens, UniProt P10415), "CCOc1cncc(C#Cc2cc(C(=O)N3CCN(c4ccc(C(=O)NS(=O)(=O)CC56CC7CC(CC(C7)C5)C6)cc4)CC3)cc(C(F)(F)F)c2)c1" has a documented ASMS ratio (%) n = 2 of −0.9%

Measured on Bcl-2 protein (Recombinant Human Bcl-2 Protein) (Homo sapiens, UniProt P10415), "CCOc1cccc(-c2ccccc2CCC(=O)N2CCN(c3ccc(C(=O)NS(C)(=O)=O)nn3)CC2)c1" has a documented ASMS ratio (%) n = 2 of 0.0%

Measured on Bcl-2 protein (Recombinant Human Bcl-2 Protein) (Homo sapiens, UniProt P10415), "CCOc1cncc(-c2ccc(CN3CCN(c4ccc(C(=O)NS(=O)(=O)CC56CC7CC(CC(C7)C5)C6)nn4)CC3)cc2F)c1" has a documented ASMS ratio (%) n = 2 of 9.3%

###

assay-system: Bcl-2 protein (Recombinant Human Bcl-2 Protein) (Homo sapiens, UniProt P10415)
Construct: purchased Novus NBP2-34889
measurement-description: Binding evaluation of mixture library compounds to Bcl-2 using AS-MS (affinity selection mass spectrometry)
applied-conditions: AS-MS on the mixture of 1200 library compounds; ASMS Ratio(%)=(A−C)/B×100; replicate n = 2
endpoint-label: ASMS ratio (%) n = 2
Quick note: number first, unit second.

Measured on Bcl-2 protein (Recombinant Human Bcl-2 Protein) (Homo sapiens, UniProt P10415), CCOc1cncc(-c2cc(C(=O)N3CCN(c4ccc(C(=O)N(C)CC56CC7CC(CC(C7)C5)C6)cc4)CC3)cc(C(F)(F)F)c2)c1 [B3A040-01] has a documented ASMS ratio (%) n = 2 of −6.7%

Measured on Bcl-2 protein (Recombinant Human Bcl-2 Protein) (Homo sapiens, UniProt P10415), CCOc1cncc(C#Cc2cncc(C(=O)N3CCN(c4ccc(C(=O)N(CC)CC)cc4)CC3)c2)c1 [B4J032-01] has a documented ASMS ratio (%) n = 2 of 1.5%

Measured on Bcl-2 protein (Recombinant Human Bcl-2 Protein) (Homo sapiens, UniProt P10415), CCOc1cccc(-c2ccccc2CN2CCN(c3ccc(C(=O)N(CC)CC)cc3)CC2)c1 [B4J045-01] has a documented ASMS ratio (%) n = 2 of 0.3%

Measured on Bcl-2 protein (Recombinant Human Bcl-2 Protein) (Homo sapiens, UniProt P10415), CCOc1cccc(-c2csc(C(=O)N3CCN(c4ccc(C(=O)Nc5ccc(OC)cc5)nn4)CC3)c2)c1 [B1O001-01] has a documented ASMS ratio (%) n = 2 of −3.1%

###

assay-system: Bcl-2 protein (Recombinant Human Bcl-2 Protein) (Homo sapiens)
Construct: purchased Novus NBP2-34889
measurement-description: Binding evaluation of mixture library compounds to Bcl-2 using AS-MS (affinity selection mass spectrometry)
applied-conditions: n = 2
Method: […] Then, analysis of the 1200 compounds was carried out for samples A, B, and C with TraceFinder 5.1 (Thermo Fisher Scientific) and CHANCE Software (in-house), and the ASMS Ratio (%) was calculated according to the following calculation formula. […]
endpoint-label: ASMS ratio (%)
The response must be a number in % with no trailing unit.

Lab book: ASMS ratio (%) of CCOc1cccc(C#Cc2cncc(C(=O)N3CCN(c4ccc(C(=O)NS(=O)(=O)CCC(F)(F)F)cc4)CC3)c2)c1 [B2N031-01] noted as 0.0

Lab book: ASMS ratio (%) of CCOc1cccc(-c2cc(CN3CCN(c4ccc(C(=O)NS(=O)(=O)C(C)(C)C)cc4)CC3)cc(OC(C)C)c2)c1 [B2L057-01] noted as 0.0

Lab book: ASMS ratio (%) of CCOc1cncc(-c2cc(C(=O)N3CCN(c4ccc(C(=O)NS(=O)(=O)C(C)(C)C)nn4)CC3)cc(C(C)(C)C)c2)c1 [B2L016-01] noted as −5.4

Lab book: ASMS ratio (%) of CCOc1cccc(-c2ccc(C(=O)N3CCN(c4ccc(C(=O)NS(=O)(=O)CCC(F)(F)F)nn4)CC3)c3ccccc23)c1 [B2N013-01] noted as 0.0

Lab book: ASMS ratio (%) of CCOc1cncc(-c2ccc(CN3CCN(c4ccc(C(=O)NS(C)(=O)=O)nn4)CC3)cc2C)c1 [B2I074-01] noted as −8.4

Lab book: ASMS ratio (%) of CCOc1cncc(-c2cc(C(=O)N3CCN(c4ccc(C(=O)NS(=O)(=O)C(C)(C)C)cc4)CC3)cc(C(F)(F)F)c2)c1 [B2L040-01] noted as 1.0

Lab book: ASMS ratio (%) of CCOc1cncc(-c2csc(CN3CCN(c4ccc(C(=O)NS(=O)(=O)C(C)(C)C)cc4)CC3)c2)c1 [B2L068-01] noted as 0.0

Lab book: ASMS ratio (%) of CCOc1cccc(-c2cc(CN3CCN(c4ccc(C(=O)NS(=O)(=O)C(C)(C)C)nn4)CC3)cc(OCC)c2)c1 [B2L081-01] noted as 0.0

Lab book: ASMS ratio (%) of CCOc1cncc(-c2ccc(CN3CCN(c4ccc(C(=O)NS(=O)(=O)C(C)(C)C)nn4)CC3)cc2F)c1 [B2L078-01] noted as −0.7

Lab book: ASMS ratio (%) of CCOc1cncc(C#Cc2cncc(C(=O)N3CCN(c4ccc(C(=O)NS(=O)(=O)c5ccc(NCCSc6ccccc6)c(C(F)(F)F)c5)nn4)CC3)c2)c1 [B2R010-01] noted as 0.0

Lab book: ASMS ratio (%) of CCOc1cccc(-c2cc(C(=O)N3CCN(c4ccc(C(=O)NS(=O)(=O)C(C)(C)C)cc4)CC3)cc(C(C)(C)C)c2)c1 [B2L037-01] noted as 0.0

Lab book: ASMS ratio (%) of CCOc1cncc(-c2ccc(C(C)N3CCN(c4ccc(C(=O)NS(=O)(=O)C(C)(C)C)cc4)CC3)cc2)c1 (centres unmarked) [B2L098-01] noted as −5.0

Lab book: ASMS ratio (%) of CCOc1cccc(-c2cc(CN3CCN(c4ccc(C(=O)NS(=O)(=O)C(C)(C)C)nn4)CC3)cc(OC(F)(F)F)c2)c1 [B2L089-01] noted as 0.0

Lab book: ASMS ratio (%) of CCOc1cccc(-c2cc(CN3CCN(c4ccc(C(=O)NS(C)(=O)=O)cc4)CC3)cc(OC(C)C)c2)c1 [B2I057-01] noted as 0.0

###

I'd appreciate it if you could supply ASMS ratio (%) n = 2 values for the items below.
assay-system: Bcl-2 protein (Recombinant Human Bcl-2 Protein) (Homo sapiens)
Construct: purchased Novus NBP2-34889
measurement-description: Binding evaluation of mixture library compounds to Bcl-2 using AS-MS (affinity selection mass spectrometry)
applied-conditions: AS-MS, mixture library, Bcl-2; replicate n = 2; ASMS Ratio(%)=(A−C)/B×100
The response must be a number in % with no trailing unit.

Lab book: ASMS ratio (%) n = 2 of "CCOc1cccc(-c2cc(CN3CCN(c4ccc(C(=O)NS(=O)(=O)CC56CC7CC(CC(C7)C5)C6)nn4)CC3)cc(OCC)c2)c1" noted as 16.7

Lab book: ASMS ratio (%) n = 2 of "CCOc1cccc(-c2ccccc2CN2CCN(c3ccc(C(=O)NS(=O)(=O)CC45CC6CC(CC(C6)C4)C5)nn3)CC2)c1" noted as 5.6

Lab book: ASMS ratio (%) n = 2 of "CCOc1cncc(C#Cc2ccccc2CN2CCN(c3ccc(C(=O)NS(=O)(=O)c4ccc(NCCSc5ccccc5)c([N+](=O)[O-])c4)cc3)CC2)c1" noted as −9.0

Lab book: ASMS ratio (%) n = 2 of "CCOc1cccc(-c2ccc(CN3CCN(c4ccc(C(=O)NS(=O)(=O)CC56CC7CC(CC(C7)C5)C6)nn4)CC3)c3ccccc23)c1" noted as 3.8

Lab book: ASMS ratio (%) n = 2 of "CCOc1cccc(C#Cc2ccccc2C(=O)N2CCN(c3ccc(C(=O)NS(=O)(=O)c4ccc(NCCSc5ccccc5)c([N+](=O)[O-])c4)nn3)CC2)c1" noted as −8.3

Lab book: ASMS ratio (%) n = 2 of "CCOc1cncc(-c2cc(CN3CCN(c4ccc(C(=O)NS(=O)(=O)c5ccc(NCCSc6ccccc6)c([N+](=O)[O-])c5)nn4)CC3)cc(OCC)c2)c1" noted as 8.5

Lab book: ASMS ratio (%) n = 2 of "CCOc1cncc(-c2ccc(CN3CCN(c4ccc(C(=O)NS(=O)(=O)c5ccc(NCCSc6ccccc6)c([N+](=O)[O-])c5)nn4)CC3)cc2F)c1" noted as 12.1

Lab book: ASMS ratio (%) n = 2 of "CCOc1cncc(-c2ccc(CN3CCN(c4ccc(C(=O)N(CC)CC)nn4)CC3)cc2C)c1" noted as 0.0

Lab book: ASMS ratio (%) n = 2 of "CCOc1cccc(-c2csc(CN3CCN(c4ccc(C(=O)NS(=O)(=O)CC56CC7CC(CC(C7)C5)C6)cc4)CC3)c2)c1" noted as 0.0

Lab book: ASMS ratio (%) n = 2 of "CCOc1cccc(-c2ccccc2CCC(=O)N2CCN(c3ccc(C(=O)NS(=O)(=O)c4ccc(NCCSc5ccccc5)c([N+](=O)[O-])c4)nn3)CC2)c1" noted as −1.1

Lab book: ASMS ratio (%) n = 2 of CCOc1cccc(-c2ccc(C(C)N3CCN(c4ccc(C(=O)NS(=O)(=O)c5ccc(NCCSc6ccccc6)c([N+](=O)[O-])c5)cc4)CC3)c(F)c2)c1 (stereo not drawn) noted as 0.0

Lab book: ASMS ratio (%) n = 2 of "CCOc1cccc(-c2csc(C(=O)N3CCN(c4ccc(C(=O)NS(=O)(=O)c5ccc(NCCSc6ccccc6)c([N+](=O)[O-])c5)cc4)CC3)c2)c1" noted as 0.0
